# TESTED SYSTEM: T1, human CD137 (human, UniProt Q07011 24-186)
# T1 construct: Soluble analyte in the Biacore assay; also called 4-1BB; hCD137
# T1 sequence (Q07011 24-186 limits assumed): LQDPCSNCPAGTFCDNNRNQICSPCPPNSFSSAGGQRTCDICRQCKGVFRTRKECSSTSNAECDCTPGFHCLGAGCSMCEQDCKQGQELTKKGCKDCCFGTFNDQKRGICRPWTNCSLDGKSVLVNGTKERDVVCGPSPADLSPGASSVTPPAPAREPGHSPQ
# METHOD: SPR Biacore T200, IgG captured on protein A, antigen as analyte, 25 C;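 note: antigens flowed over a CM3 chip for 120 s association, KD derived from ka and kd, running buffer (ACES, NaCl, Tween20, pH 7.4) served as blank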
PROPERTY: kon (M⁻¹ s⁻¹)
# number only, unit M⁻¹ s⁻¹ dropped from output

-- ask Could you please provide reported kon for dBBDu_189 / dBBDu_L119 (antibody, human IgG1, V domains shown, Tested as IgG (human IgG1 constant region, kappa light chain); also called dBBDu189/L119) VH: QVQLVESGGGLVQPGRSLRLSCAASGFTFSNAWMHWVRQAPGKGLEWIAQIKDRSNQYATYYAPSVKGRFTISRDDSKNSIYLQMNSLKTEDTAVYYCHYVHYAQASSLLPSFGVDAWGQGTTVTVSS VL: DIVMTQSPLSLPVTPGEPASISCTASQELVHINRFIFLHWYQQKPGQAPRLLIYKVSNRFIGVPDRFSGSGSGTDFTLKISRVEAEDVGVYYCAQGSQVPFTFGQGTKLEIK ? Thanks!
-- reply 148
